- TARGET_OR_SYSTEM: PD-L1 expressed on CHO cells (human, UniProt Q9NZQ7 19-290)
- Sequence (Q9NZQ7 19-290 limits assumed): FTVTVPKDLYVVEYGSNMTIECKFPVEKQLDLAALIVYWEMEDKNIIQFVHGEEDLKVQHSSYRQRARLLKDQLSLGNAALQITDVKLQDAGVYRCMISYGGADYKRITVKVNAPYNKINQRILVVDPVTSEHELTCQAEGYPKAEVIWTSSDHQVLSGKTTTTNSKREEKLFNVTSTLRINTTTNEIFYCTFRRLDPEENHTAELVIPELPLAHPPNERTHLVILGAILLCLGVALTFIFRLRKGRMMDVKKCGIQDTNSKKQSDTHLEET
- RUN_DESCRIPTION: cell-based or functional assay

BINDER	UNITS	Promega assay antagonist (EC50, ug/mL)
antibody A6 (antibody, V domains shown, Tested as full-length mAb made in CHO cells; also called L6H6) VH: QVQLVESGGGVVQPGRSLRLSCAASGFTFSSYGMHWVRQAPGKGLEWVAVIWFDGSNKYYADSVKGRFTISRDNSKNTLYLQMNSLRAEDTAVYYCARDKTVSPFDIWGQGTMVTVSS VL: EIVMTQSPATLSLSPGERATLSCRASQSVSSSYLSWYQQKPGQAPRLLIYGASTRATGIPARFSGSGSGTDFTLTISSLQPEDFAVYYCQQDYNLFTFGPGTKVDIK	µg/mL	0.111
antibody A13 (antibody, V domains shown, Tested as full-length mAb made in CHO cells; also called L13H13) VH: QVQLQESGPGLVKPSETLSLTCTVSGGSISSYYWSWIRQPPGKGLEWIGYIHYSGSTKYNPSLKSRVTISLDTSKNQFSLKLSSVTAADTAVYYCARDRGIGAFDIWGQGTMVTVSS VL: EIVMTQSPATLSLSPGERATLSCRASQSVSSSYLSWYQQKPGQAPRLLIYGASTRATGIPARFSGSGSGTDFTLTISSLQPEDFAVYYCQQDYNLITFGQGTRLEIK	µg/mL	1.12
antibody A3 (antibody, V domains shown, Tested as full-length mAb made in CHO cells; also called L3H3) VL: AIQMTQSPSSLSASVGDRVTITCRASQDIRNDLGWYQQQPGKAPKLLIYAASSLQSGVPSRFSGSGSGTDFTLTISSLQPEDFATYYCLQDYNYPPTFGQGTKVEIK V domain: QVQLVESGGGVVQPGRSLRLSCAASGFTFSNYGMHWVRQAPGKGLEWVAVIWFDGNTKYYTDSVKGRFTISRDNSKNTLYLQMNSLRAEDTAVYYCARDTTMVPMDVWGQGTTATVSS	µg/mL	0.12
antibody A10 (antibody, V domains shown, Tested as full-length mAb made in CHO cells; also called L10H10) VH: QVQLVESGGGVVQPGRSLRLSCAASGFTFSSYGMHWVRQAPGKGLEWVAVIWYDGINKYYADSVKGRFTISRDNSKNTLYLQMNSLRAEDTAVYYCARDSTASPFDYWGQGTLVTVSS VL: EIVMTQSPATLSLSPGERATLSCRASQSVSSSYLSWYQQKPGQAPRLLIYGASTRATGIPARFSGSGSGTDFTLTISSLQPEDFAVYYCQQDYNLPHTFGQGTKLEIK	µg/mL	0.27
antibody A15 (antibody, V domains shown, Tested as full-length mAb made in CHO cells; also called L15H15) VH: QLQLQESGPGLVKPSETLSLTCTVSGGSFNRSNYYWGWIRQPPGKGLEWIGSIYYSGSTYYNPSLKSRLTISADTSKTQFSLKRNSVTAADTAVYYCAREDIVVVPAAQPPHFYFGMDVWGQGTTVTVSS VL: DIQMTQSPSSLSASVGDRVTITCRASQGIRNDLGWYQQKPGKAPKRLIYAASSLQSGVPSRFSGSGSGTEFTLTISSLQPEDFATYYCLQHDSYPLTFGGGTKVEIK	µg/mL	0.55
